subject.of.test: UniProt P9WMN1
experimental.protocol: biochemical
attribute.measured: pIC50
Expect pIC50 as a plain number equal to -log10 of the molar concentration.

Prompt: Specify reported pIC50 for the molecule shown: N[C@@H](Cc1c[nH]cn1)C(=O)O [L-His, L-histidine, reference compound]
Response: 4.66

====

subject.of.test: M. tuberculosis ATP-PRT (Mycobacterium tuberculosis)
Sequence (P9WMN1 whole entry, looked up): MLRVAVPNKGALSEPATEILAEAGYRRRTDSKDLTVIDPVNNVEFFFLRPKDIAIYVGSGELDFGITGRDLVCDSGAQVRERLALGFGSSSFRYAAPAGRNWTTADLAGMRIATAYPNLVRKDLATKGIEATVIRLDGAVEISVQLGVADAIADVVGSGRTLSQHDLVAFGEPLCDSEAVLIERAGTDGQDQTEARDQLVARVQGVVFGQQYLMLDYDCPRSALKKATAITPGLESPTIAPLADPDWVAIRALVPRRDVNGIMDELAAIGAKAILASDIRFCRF
experimental.protocol: biochemical
setup.conditions: linear noncompetitive inhibition vs. PRPP, no TIH; read-out: K i,PRPP
attribute.measured: Ki (µM)
Number in µM, nothing else.

Prompt: Specify reported Ki for the molecule shown: N[C@@H](Cc1c[nH]cn1)C(=O)O [L-His, L-histidine, reference compound]
Response: 16
